Readings of pIC50 for the listed compounds
System Name: equine serum butyrylcholinesterase (EqBuChE) (Equus caballus)
Sequence (P81908 whole entry): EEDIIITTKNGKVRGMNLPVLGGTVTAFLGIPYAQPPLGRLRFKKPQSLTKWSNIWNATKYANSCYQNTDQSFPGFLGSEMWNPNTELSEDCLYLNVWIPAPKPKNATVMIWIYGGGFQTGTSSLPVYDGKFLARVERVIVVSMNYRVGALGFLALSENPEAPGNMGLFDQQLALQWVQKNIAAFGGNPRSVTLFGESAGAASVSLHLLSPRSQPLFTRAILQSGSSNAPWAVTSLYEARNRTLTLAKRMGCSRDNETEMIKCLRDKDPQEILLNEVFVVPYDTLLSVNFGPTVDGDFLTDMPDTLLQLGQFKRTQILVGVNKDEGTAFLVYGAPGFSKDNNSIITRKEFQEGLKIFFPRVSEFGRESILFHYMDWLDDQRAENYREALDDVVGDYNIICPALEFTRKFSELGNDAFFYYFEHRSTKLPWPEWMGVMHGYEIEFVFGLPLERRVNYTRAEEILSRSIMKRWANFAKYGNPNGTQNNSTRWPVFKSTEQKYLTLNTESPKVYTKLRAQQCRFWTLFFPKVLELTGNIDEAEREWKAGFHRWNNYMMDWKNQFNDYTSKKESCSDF
Assay Remarks: Anticholinesterase activity assay
pIC50 field: float, defined as -log10 of concentration (mol/L).

>  <Compound>
c1ccc(CN2CCN(CCCCNc3nc(-c4ccccc4)n(-c4ccccc4)n3)CC2)cc1 [Compound 13b]

>  <System Name>
equine serum butyrylcholinesterase (EqBuChE) (Equus caballus)

>  <pIC50>
5.79

$$$$
>  <Compound>
c1ccc(CN2CCN(CCCCCNc3nc(-c4ccccc4)n(-c4ccccc4)n3)CC2)cc1 [Compound 13c]

>  <System Name>
equine serum butyrylcholinesterase (EqBuChE) (Equus caballus)

>  <pIC50>
5.78

$$$$

Consider the record given below.
Please report pIC50 with equine serum butyrylcholinesterase (EqBuChE) (Equus caballus) for item c1ccc(CN2CCN(CCCCCCNc3nc(-c4ccccc4)n(-c4ccccc4)n3)CC2)cc1 [Compound 13d] .
5.66
